pIC50 by entry:
test_target: Nuclear receptor coactivator 3 (Homo sapiens)
protocol_details: SRC-3 protein downregulation in breast cancer cells – cell-based, MCF-7, Western blot, powder samples, mechanism study for SRC-3 inhibitor probe project, late-stage follow-up (AID 652066)
measurement_context: MCF-7 SRC-3 protein level, 24 h
pIC50: −log10 of the molar value.

Req: Can you look up the measured pIC50 of COc1cc(C2c3cc4c(cc3C(OC3OC5COC(c6cccs6)OC5C(O)C3O)C3COC(=O)C23)OCO4)cc(OC)c1O (stereo unspecified) for me?
Resp: > 6.40

Req: Can you look up the measured pIC50 of `NC(=O)c1sc2nc3c(c(-c4ccco4)c2c1N)CCC3` for me?
Resp: > 5.70

Req: Can you look up the measured pIC50 of O=C(CCl)N1N=C(c2ccco2)CC1c1ccco1 (stereo unspecified) for me?
Resp: > 5.70

Req: Can you look up the measured pIC50 of `O=C(Nc1nc(-c2ccccn2)cs1)c1cccc(S(=O)(=O)N2CCOCC2)c1` for me?
Resp: > 5.70

Req: Can you look up the measured pIC50 of COc1cc2c(cc1OC)C(NC(=O)C(F)(F)F)CNC2=O (stereo unspecified) for me?
Resp: > 5.70

Req: Can you look up the measured pIC50 of O=C(CCl)N1N=C(c2ccco2)CC1c1cccs1 (stereo unspecified) for me?
Resp: > 6.40
